Collected IC50 values appear next to each entry.
Tested on: nitric oxide production in lipopolysaccharide-treated RAW264.7 cells
Assay: Inhibition of LPS-induced NO production in RAW264.7 cells (Griess reagent)
Format: cell-based
Details: Mus musculus, RAW 264.7 cells, compounds 30 min then LPS 1.0 μg/mL for 24 h
readout name: IC50 (µM)

>>> data_value("COc1c(O)cc2c(=O)oc3c(O)c(O)cc4c(=O)oc1c2c34")
78
>>> data_value("O=C(C=Cc1ccc(O)c(O)c1)OCC1OC(OCc2ccccc2)C(O)C(O)C1O (stereo not shown)")
81.8
>>> data_value("O=c1c(O[C@@H]2O[C@H](CO)[C@H](O)[C@H](O)[C@H]2O)c(-c2ccc(O)c(O)c2)oc2cc(O)cc(O)c12 [Compound 3, quercetin-3-O-β-D-galactopyranoside]")
81.9
>>> data_value("O=C(/C=C/c1ccc(O)c(O)c1)O[C@@H]1C[C@](O)(C(=O)O)C[C@@H](O)[C@H]1O")
81.2
